System: Trypanosoma cruzi
Experiment: GSK_TCAKS: pIC50 Trypanosoma cruzi Imaging: Infected Cells. […] Cells were then washed once with PBS before infection. T. cruzi trypomastigotes, collected at days 5 to 8 after infection from LLC-MK2 parasite infected cultures, were allowed to swim out for 4h at 37C from a centrifuged pellet (2,500 rpm/10 min/room temperature). Trypomastigotes were then collected and counted in a CASY Cell Counter. Trypomastigotes, in supplemented DMEM, were added to H9c2 cultures in a multiplicity of infection of 1 and incubated for 18 h. Cells were washed once with PBS before incubation of the infected H9c2 monolayer with trypsin (Life-Technologies) to detach cells from the flask. Cells were counted in a CASY Cell Counter using a 150 um capillary and their density set at 5 * 10^4 cells per mL in supplemented assay DMEM. Infected H9c2 were dispensed into 384-well poly-lysine coated assay plates at 50uL per well using a Multidrop Combi dispenser. After seeding them, the plates were incubated at 37C, 5% CO2 for 72h. Cultures were then fixed and stained by addition of 50 uL of a solution containing 8% formaldehyde and 4 uM DRAQ5 DNA dye (BioStatus, UK) per well. […] Five images were collected per well for reliable statistical analysis. Automated image analysis was performed with a script developed on Acapella High Content Imaging and Analysis Software (PerkinElmer). Output: percentage of infected cells per well as a second infection marker.
Format: functional, organism-based, Rattus norvegicus
Conditions: H9c2, 4 h
pIC50: −log10 of the molar value.
Binary classification by pIC50, with 5 as an inclusive lower bound for 1 (yes); all other cases are 0 (no).

Answered cases to consult:
{"Molecule": "O=C(c1ccccc1)N1CCC(C(=O)N2CCC(Oc3ccccc3Cl)CC2)CC1", "System Under Test": "Trypanosoma cruzi", "Assigned Class": "0 (no)"}
{"Molecule": "Cc1cc(N(C)C)nc(Nc2ccccc2C)n1", "System Under Test": "Trypanosoma cruzi", "Assigned Class": "1 (yes)"}
{"Molecule": "Nc1nonc1-c1nc2cncc(C(=O)N3CC[C@H](N)C3)c2n1CC1CC1", "System Under Test": "Trypanosoma cruzi", "Assigned Class": "0 (no)"}
{"Molecule": "Cc1cc(N(C)C)nc2ccc(Cc3cnc(N)nc3N)cc12", "System Under Test": "Trypanosoma cruzi", "Assigned Class": "1 (yes)"}
{"Molecule": "NS(=O)(=O)c1ccc(CNC(=O)c2ccc([N+](=O)[O-])s2)cc1", "System Under Test": "Trypanosoma cruzi", "Assigned Class": "1 (yes)"}

# check: pIC50 of CNC(=O)C1Cc2ccccc2N1C(=O)Cc1ccc(OC)cc1 (stereo not given) is greater than or equal to 5
0 (no)

Record: CN(Cc1ccc(F)cc1)c1ccc(OCC(=O)N2CCCCC2c2cccnc2)nn1 (stereo not given)
1 (yes)

Record: "CC(=O)Nc1ccc(CN2CCC(N3CC(c4ccccc4)(c4ccccc4)OCC3=O)CC2)cc1"
0 (no)

Record: "N#Cc1cccc(Cc2cc(Nc3cc(C4CC4)[nH]n3)nc(N3CC[C@H]3C(N)=O)n2)c1"
1 (yes)
